Test method notes: CellTiter-Glo viability, MDA-MB-453
Assay type: cell-based
Assay conditions: human, MDA-MB-453 cells; MDA-MB-453, 600 nM; read-out: cell viability by CellTiter-Glo

# Molecule, viability at 0.6 µM
records = [
    ("O=C1NC(=O)C(c2cnc3ccccn23)=C1c1cn2c3c(cc(F)cc13)CN(C(=O)N1CCCCC1)CC2 [LY-2090314]", "~100%"),
]

###

Test method notes: CellTiter-Glo viability, MDA-MB-231
Type: cell-based, human
Assay conditions: human, MDA-MB-231 cells, MDA-MB-231, 10 μM of drug; read-out: cell viability by CellTiter-Glo

# Molecule, viability at 10 µM
measured = [
    ("Cc1c[nH]c(-c2cnc(NCCNc3ccc(C#N)cn3)nc2-c2ccc(Cl)cc2Cl)n1 [CHIR-99021]", "76.4%"),
    ("O=C1NC(=O)C(c2cnc3ccccn23)=C1c1cn2c3c(cc(F)cc13)CN(C(=O)N1CCCCC1)CC2 [LY-2090314]", "~100%"),
]
